- Assay remarks: Single-dose escalation pharmacokinetics in volunteers
- Format: in vivo, human
- Condition details: human, plasma; 80 mg dosage as free base equivalent, single oral dose; read-out: mean maximum blood plasma concentration (mean Cmax) of the free base
Attribute measured: Cmax (ng/mL)
# unit: ng/mL | format: bare number

Input CS(=O)(=O)O.Cc1nc(N(C)C(=O)Cc2ccc(-c3ccccn3)cc2)sc1S(N)(=O)=O [mono mesylate monohydrate salt] . Output Cmax: 1310

###

- Assay remarks: Single-dose escalation pharmacokinetics in volunteers
- Format: in vivo, human
- Condition details: male; single oral dose 80 mg free base equivalent, males; human; mean, n = 6; free base in plasma
- Source text: Exposure of the free base form of N-[5-(aminosulfonyl)-4-methyl-1,3-thiazol-2-yl]-N-methyl-2-[4-(2-pyridinyl)-phenyl]acetamide to the human body may be measured by high pressure liquid chromatography (HPLC) by looking at different pharmacokinetic parameters in suitable bodily fluids such as for instance blood plasma and urine, the most common parameters being the Cmax, the so-called area under the curve (AUC), and the terminal half-life (t1/2Z). […]
Attribute measured: AUC(0-inf) (ng·h/mL)
# unit: ng·h/mL | format: bare number

Input CS(=O)(=O)O.Cc1nc(N(C)C(=O)Cc2ccc(-c3ccccn3)cc2)sc1S(N)(=O)=O [mono mesylate monohydrate salt] . Output AUC(0-inf): 87200

###

- Assay remarks: Single-dose escalation pharmacokinetics in volunteers
- Assay type: in vivo, human
- Condition details: plasma; single oral dose 40 mg free base equivalent; human; median, n = 6; read-out: tmax
Attribute measured: Tmax (h)
# unit: h | format: bare number

Input CS(=O)(=O)O.Cc1nc(N(C)C(=O)Cc2ccc(-c3ccccn3)cc2)sc1S(N)(=O)=O [mono mesylate monohydrate salt] . Output Tmax: 3.5

###

- Assay remarks: Single-dose escalation pharmacokinetics in volunteers
- Assay type: in vivo, human
- Condition details: single oral dose 320 mg free base equivalent; human; mean, n = 6; free base in plasma
Attribute measured: AUC(0-inf) (µg·h/mL)
# unit: µg·h/mL | format: bare number

Input CS(=O)(=O)O.Cc1nc(N(C)C(=O)Cc2ccc(-c3ccccn3)cc2)sc1S(N)(=O)=O [mono mesylate monohydrate salt] . Output AUC(0-inf): 241

###

- Assay remarks: Single-dose escalation pharmacokinetics in volunteers
- Type: in vivo, human
- Condition details: plasma; single oral dose 10 mg free base equivalent; human; mean, n = 6
Attribute measured: MRT (h)
# unit: h | format: bare number

Input CS(=O)(=O)O.Cc1nc(N(C)C(=O)Cc2ccc(-c3ccccn3)cc2)sc1S(N)(=O)=O [mono mesylate monohydrate salt] . Output MRT: 116

###

- Assay remarks: Single-dose escalation pharmacokinetics in volunteers
- Assay type: in vivo, human
- Condition details: human, plasma; 240 mg dosage as free base equivalent, single oral dose; read-out: AUC0-24h
Attribute measured: AUC(0-t) (ng·h/mL)
# unit: ng·h/mL | format: bare number

Input CS(=O)(=O)O.Cc1nc(N(C)C(=O)Cc2ccc(-c3ccccn3)cc2)sc1S(N)(=O)=O [mono mesylate monohydrate salt] . Output AUC(0-t): 59600

###

- Assay remarks: Multiple-dose escalation, steady state pharmacokinetics in healthy volunteers
- Assay type: in vivo, human
- Condition details: human, plasma, oral; 25 mg dosage as free base equivalent, steady state after once daily single doses for 21 days; read-out: mean maximum blood plasma concentration at steady state (mean Cmax,ss) of the free base
Attribute measured: Cmax (ng/mL)
# unit: ng/mL | format: bare number

Input CS(=O)(=O)O.Cc1nc(N(C)C(=O)Cc2ccc(-c3ccccn3)cc2)sc1S(N)(=O)=O [mono mesylate monohydrate salt] . Output Cmax: 1360
